molecular target: Luciferin 4-monooxygenase (Photinus pyralis, UniProt P08659); test: Counter Screen for Luciferase-based Assay Positives. [Related pubchem assays: 620, 618, 411 ]
Sequence (P08659 whole entry): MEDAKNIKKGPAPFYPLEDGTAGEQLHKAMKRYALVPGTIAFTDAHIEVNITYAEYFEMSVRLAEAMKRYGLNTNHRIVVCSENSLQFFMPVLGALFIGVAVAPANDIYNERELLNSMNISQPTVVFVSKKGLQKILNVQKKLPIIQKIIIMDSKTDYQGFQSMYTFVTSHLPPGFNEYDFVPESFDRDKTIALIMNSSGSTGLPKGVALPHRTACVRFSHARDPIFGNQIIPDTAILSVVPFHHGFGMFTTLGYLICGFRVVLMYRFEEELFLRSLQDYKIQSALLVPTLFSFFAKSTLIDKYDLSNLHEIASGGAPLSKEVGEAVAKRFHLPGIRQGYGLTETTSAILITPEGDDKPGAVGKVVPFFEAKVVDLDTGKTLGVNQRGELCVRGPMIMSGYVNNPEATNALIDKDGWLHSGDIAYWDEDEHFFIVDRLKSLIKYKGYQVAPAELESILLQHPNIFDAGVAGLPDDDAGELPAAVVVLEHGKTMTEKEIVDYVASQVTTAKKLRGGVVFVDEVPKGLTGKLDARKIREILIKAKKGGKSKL
The source made the active and inactive calls. Cut-off read from the data, not from the text of the source: actives have a measured EC50 and inactives only a lower limit.
Quantity name: EC50

The examples below pair each entry with its known result.
{"Compound": "Cn1c(-c2ccccc2)cnc1SCC(=O)N1CCCCC1", "Experimental target": "Luciferin 4-monooxygenase (Photinus pyralis, UniProt P08659)", "EC50": "22.8 µM (active)"}
{"Compound": "Cc1ccc(-c2nc(N/N=C/c3ccncc3)c3ccccc3n2)cc1", "Experimental target": "Luciferin 4-monooxygenase (Photinus pyralis, UniProt P08659)", "EC50": "7.97 µM (active)"}
{"Compound": "CC(C)c1ccc2oc(-c3ccc(N)cc3)nc2c1", "Experimental target": "Luciferin 4-monooxygenase (Photinus pyralis, UniProt P08659)", "EC50": "12.3 µM (active)"}
{"Compound": "CCOc1ccc(OCc2ccc(C(=O)O)o2)cc1", "Experimental target": "Luciferin 4-monooxygenase (Photinus pyralis, UniProt P08659)", "EC50": "0.36 µM (active)"}
{"Compound": "COc1cccc(C(=O)Nc2nc3ccccc3[nH]2)c1", "Experimental target": "Luciferin 4-monooxygenase (Photinus pyralis, UniProt P08659)", "EC50": "0.75 µM (active)"}
{"Compound": "O=C(O)c1cccc(C(=O)Nc2cccc(NC(=O)C3CCCO3)c2)c1 (centres undefined)", "Experimental target": "Luciferin 4-monooxygenase (Photinus pyralis, UniProt P08659)", "EC50": "56.3 µM (active)"}

Exercise: // returns reported EC50 for input CC(C)C(=O)NC(c1ccco1)c1ccc2cccnc2c1O (centres undefined)
Key: 38.8 µM (active)

Exercise: Further, for O=C(/C=C\Nc1ccccn1)c1ccccc1 ?
Key: < 0.2 µM (active)

Exercise: Further, for Cc1ccc(CNc2nc3ccccc3s2)s1 ?
Key: 14.4 µM (active)
